Target: T1, 6His–Evasin-4 (Rhipicephalus sanguineus, UniProt P0C8E9 24-127)
T1 sequence: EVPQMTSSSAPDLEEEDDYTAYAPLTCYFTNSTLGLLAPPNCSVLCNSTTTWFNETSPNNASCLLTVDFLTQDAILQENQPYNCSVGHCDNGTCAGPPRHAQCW
Assay: SPR
I'd appreciate it if you could supply log10 of Kd values for the items below.
Short version: log10 scale, Kd, nM.

Reference set (4 entries):
{"BINDER": "CCL3 (ligand) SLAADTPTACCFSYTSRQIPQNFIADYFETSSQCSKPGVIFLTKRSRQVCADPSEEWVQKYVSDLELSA", "log10 of Kd": -0.41}
{"BINDER": "CCL5 E26A (ligand) SPYSSDTTPCCFAYIARPLPRAHIKAYFYTSGKCSNPAVVFVTRKNRQVCANPEKKWVREYINSLEMS", "log10 of Kd": -2.70}
{"BINDER": "CCL18 (ligand) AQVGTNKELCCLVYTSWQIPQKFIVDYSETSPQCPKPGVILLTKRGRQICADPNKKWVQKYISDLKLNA", "log10 of Kd": -0.70}
{"BINDER": "CCL26 (ligand) TRGSDISKTCCFQYSHKPLPWTWVRSYEFTSNSCSQRAVIFTTKRGKKVCTHPRKKWVQKYISLLKTPKQL", "log10 of Kd": 1.06}

Please look at the following binder next.
INPUT: Given the binder CCL23 (ligand) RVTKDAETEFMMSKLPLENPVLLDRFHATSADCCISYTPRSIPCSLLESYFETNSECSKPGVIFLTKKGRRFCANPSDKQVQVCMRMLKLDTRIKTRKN , what is its reported log10 of Kd?
OUTPUT: 1.03
